# Test system: SH-SY5Y neuroblastoma human cell line
# METHOD_DESCRIPTION: Cytotoxicity in SH-SY5Y cells (ATP viability assay)
# Format: cell-based
# PARTICULARS: 48 h
# Experimental: The neuroblastoma cell line SHSY-5Y (ATCC CRL2266) was cultured in EMEM ATCC medium supplemented with 10% FBS (Euroclone CAT No. ECS0180D), 100 units/mL penicillin, and 100 ug/mL streptomycin sulphate (Euroclone CAT No. ECB3001). Cells were grown at 37 °C in an atmosphere of 5% CO2 and plated at 10,000 cells/well in a 96-well plate (Corning Cat. N. 3610). […] Cell viability was evaluated by measuring ATP levels using CellTiter Glo (Promega Cat.n. G7570) according to manufacturer’s instructions.
MEASURED_ENDPOINT: pEC50
Answers are plain numbers, as −log10 of the molar value.

Field: pEC50. Fill in for each record below.
1. COc1cc(C(=O)c2ccc(C)cc2C)cc([N+](=O)[O-])c1O [Compound 2]
2. Cc1ccc(C(=O)c2cc(O)c(O)c([N+](=O)[O-])c2)cc1 [tolcapone]
3. COc1cc(C(=O)c2ccc(C)cc2)cc([N+](=O)[O-])c1O [3-OMT, 3-O-methyltolcapone]
4. COc1cc(C(=O)c2cc(C)cc(C)c2)cc([N+](=O)[O-])c1O [Compound 1]

OUTPUT:
1. 3.76
2. 4.53
3. 3.65
4. 3.76
